Tested on: Fibroblast
Assay: Multiplex assay against human fibroblast
Assay type: toxicity, cell-based
Conditions: 24 h, 1 µM, compound concentration 1 uM, replicate 1
Decide using Population Mitotic Cells (%) alone. Strictly below 50%: 1 (yes). Equal to or above 50%: 0 (no).

| COMPOUND | CLASSIFICATION |
| --- | --- |
| CCc1nn2c(C)cc(C)nc2c1Cc1ccc(-c2nnc(C3CCNCC3)o2)cc1 | 1 (yes) |
| O=C(O)CCC/C=C\CC1C(O)CC(O)C1/C=C/C(O)COc1cccc(Cl)c1 (stereo not given) | 0 (no) |
| CCCCC[C@H](O)/C=C/[C@H]1[C@H](O)CC(=O)[C@@H]1CCCCCCC(=O)O | 0 (no) |
| C[C@H](NC(=O)CNC(=O)c1cccc(Cl)c1)c1ccccc1 | 0 (no) |
| O=c1nc2[nH]c3ccccc3nc-2c(=O)[nH]1 | 1 (yes) |
| CC(C)(C)c1ccc(CSc2cnn(C(C)(C)C)c(=O)c2Cl)cc1 | 0 (no) |
| CN1CCN2c3ccccc3Cc3ccccc3C2C1.Cl (stereo not given) [MIANSERIN HYDROCHLORIDE] | 1 (yes) |
| CN1CCN(c2ccc(Nc3c4ccccc4nc4ccccc34)cc2)CC1.Cl.Cl.O | 1 (yes) |
| Cc1cc(NC(=O)NCCN2CCC(O)(Cc3ccccc3)CC2)c2ccccc2n1 | 1 (yes) |
| C=CCN1C[C@H](C(=O)N(CCCN(C)C)C(=O)NCC)C[C@@H]2c3cccc4[nH]cc(c34)C[C@H]21 | 1 (yes) |
| Cc1sc2c(c1C)C(c1ccc(Cl)cc1)=N[C@H](CC(=O)OC(C)(C)C)c1nnc(C)n1-2 | 1 (yes) |
| Nc1nc(CC(=O)Nc2ccc(CCNC[C@H](O)c3ccccc3)cc2)cs1 | 1 (yes) |
| N[C@](CC1c2ccccc2Oc2ccccc21)(C(=O)O)[C@H]1C[C@@H]1C(=O)O | 1 (yes) |
| COc1cc(Nc2ncc3c(n2)-c2ccc(Cl)cc2C(c2c(F)cccc2OC)=NC3)ccc1C(=O)O | 0 (no) |
| COC(c1ccccc1)(c1ccccc1)[C@H](Oc1nc(C)cc(C)n1)C(=O)O | 1 (yes) |
| CCCCCCNC(=O)Nc1ccc(S(=O)(=O)Nc2ccc(CCNC[C@H](O)COc3ccc(O)cc3)cc2)cc1 | 0 (no) |
| COCCn1c(C)c(C)s/c1=N\C(=O)C1C(C)(C)C1(C)C | 1 (yes) |
| Cc1cc(O)c(-c2ccc([C@@H](C)CN(C)C)cc2)c2c1[nH]c(=O)c1sccc12 | 0 (no) |
| Cl.Cl.OCCOCCN1CCN(C(c2ccccc2)c2ccc(Cl)cc2)CC1 (stereo not given) [HYDROXYZINE HYDROCHLORIDE] | 0 (no) |
| CSc1nc(NC2CCCC2)c([N+](=O)[O-])c(NC2CCCC2)n1 | 0 (no) |
| COc1ccc2[nH]c(I)c(CCNC(C)=O)c2c1 | 1 (yes) |
| COc1cc(C(=O)N2CC[C@@H](O)[C@@H](N)C2)cc2nc(-c3cc4ccccc4n3CC3CC3)n(C)c12.Cl | 1 (yes) |
| COc1cc(OC2CCN(C(C)=O)CC2)ccc1C(=O)N1CCC(N2C(=O)OCc3ccccc32)CC1 | 1 (yes) |
| CN(C)C/C=C/C(=O)Nc1ccc(C(=O)N2CCCC(Nc3ncc(Cl)c(-c4c[nH]c5ccccc45)n3)C2)cc1 (stereo not given) | 1 (yes) |
| S=C(NCCCc1c[nH]cn1)NCCCN(Cc1ccc(Cl)c(Cl)c1)c1ccc(Br)cn1 | 1 (yes) |
| OCCCNc1cc(-c2ccnc(Nc3cccc(Cl)c3)n2)ccn1 | 1 (yes) |
| Cc1cc(=O)n(C)c2cc(N3C(=O)CC[C@H](NS(=O)(=O)CC(C)C)[C@H]3c3ccc(Cl)cc3)ccc12 | 0 (no) |
| CN1CCC(C(=O)c2cccc(NC(=O)c3c(F)cc(F)cc3F)n2)CC1 | 0 (no) |
| C[C@@H]1CC(=O)Nc2cccc(-c3ccc4c(c3)c(-c3cnn(C)c3)nn4C)c2N1 | 1 (yes) |
| O=C(Nc1cc(-c2ccccc2)nn1-c1ccccc1F)c1ccc([N+](=O)[O-])cc1 | 1 (yes) |
| O=c1ccc2ccc(OCCCCN3CCN(c4cccc5sccc45)CC3)cc2[nH]1 | 1 (yes) |
